Test system: RXRa DBDmut IVT, anti-RXR (DBD mutation: RXRa K156A/R161A, NR concentration 90 nM)
experiment notes: PBM binding z-score (relative to random genomic background probes); higher = stronger binding; sequences stand for … in GC…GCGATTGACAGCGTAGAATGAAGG
Please enter met where PBM binding z-score is greater than or equal to 2, and not met where it is lower.

Here's what some known entries look like.
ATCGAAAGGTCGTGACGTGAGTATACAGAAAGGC: not met
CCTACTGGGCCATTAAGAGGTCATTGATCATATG: not met
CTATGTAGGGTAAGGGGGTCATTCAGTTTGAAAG: met
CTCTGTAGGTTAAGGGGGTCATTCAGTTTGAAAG: met
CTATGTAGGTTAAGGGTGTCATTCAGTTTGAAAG: not met
CCGCGTAGGTTACGAGGGGGCATTCAGTGCGAAT: not met

Reported PBM binding z-score reaches at least 2 for `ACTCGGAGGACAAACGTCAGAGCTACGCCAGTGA` ?
not met

Could you please find out whether `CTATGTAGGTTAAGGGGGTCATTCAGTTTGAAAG` has PBM binding z-score that meets 2 or exceeds it?
met

Threshold query (PBM binding z-score >= 2) on `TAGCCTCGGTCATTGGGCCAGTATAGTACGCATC`
not met

Say whether `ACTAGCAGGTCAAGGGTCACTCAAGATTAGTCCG` shows PBM binding z-score of 2 or more.
met

// inclusive: PBM binding z-score at least 2? input: `ATGTGTAGGTTACATCCGGGTCATTCAGGCTATG`
not met

Hi, just wondering whether `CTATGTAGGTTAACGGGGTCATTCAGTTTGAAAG` shows PBM binding z-score of 2 or higher.
met

Check this sequence for PBM binding z-score at or above 2: `TTACCAAGGTGACCTGAGGTCGTTGATCCAACTC`
not met

Has `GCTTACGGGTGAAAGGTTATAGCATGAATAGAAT` a recorded PBM binding z-score greater than or equal to 2?
not met

Has `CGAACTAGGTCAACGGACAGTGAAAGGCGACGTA` a recorded PBM binding z-score greater than or equal to 2?
not met

Hello, I need to know if `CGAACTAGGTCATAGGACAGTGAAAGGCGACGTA` has measured PBM binding z-score not below 2. Thanks!
not met

Quick check, PBM binding z-score >= 2? `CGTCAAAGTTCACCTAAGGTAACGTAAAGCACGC`
met
